# IC50 listing for each entry below
# SYSTEM_TESTED: Cholinesterase (Homo sapiens)
# Sequence (P06276 whole entry): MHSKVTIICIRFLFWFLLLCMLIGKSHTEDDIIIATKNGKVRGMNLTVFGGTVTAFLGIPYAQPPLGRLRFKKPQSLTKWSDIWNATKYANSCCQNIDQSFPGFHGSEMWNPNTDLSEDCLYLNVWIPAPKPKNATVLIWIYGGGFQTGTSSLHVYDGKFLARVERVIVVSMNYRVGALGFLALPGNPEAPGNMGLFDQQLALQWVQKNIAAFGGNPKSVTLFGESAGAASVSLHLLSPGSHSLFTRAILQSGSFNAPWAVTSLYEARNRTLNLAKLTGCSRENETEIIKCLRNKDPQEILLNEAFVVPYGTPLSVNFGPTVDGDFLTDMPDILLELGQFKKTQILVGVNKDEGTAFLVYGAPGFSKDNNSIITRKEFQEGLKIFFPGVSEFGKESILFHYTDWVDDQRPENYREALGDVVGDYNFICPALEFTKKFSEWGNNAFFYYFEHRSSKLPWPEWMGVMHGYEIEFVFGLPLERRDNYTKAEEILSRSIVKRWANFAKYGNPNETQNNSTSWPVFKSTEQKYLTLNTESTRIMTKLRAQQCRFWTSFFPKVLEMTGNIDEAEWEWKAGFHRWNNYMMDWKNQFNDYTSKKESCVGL
MEASURED_ATTRIBUTE: IC50 (µM)

> print(dat)
                                    compound  reported
 1   O=C(CCc1ccccc1)N1c2ccccc2Sc2ccc(Cl)cc21         5
 2  COc1ccc(C(=O)N2c3ccccc3[Se]c3ccccc32)cc1OC       9.1
 3    c1ccc2c(c1)Nc1ccccc1S2 [PHENOTHIAZINE]       5.8
 4  COc1ccc(C(=O)N2c3ccccc3[Se]c3ccccc32)cc1      11.1
 5               Clc1ccc2c(c1)Nc1ccccc1[Se]2       4.7
 6                 c1ccc2c(c1)Nc1ccccc1[Se]2         3
 7     COc1cccc(C(=O)N2c3ccccc3Sc3ccccc32)c1      25.5
 8  COc1ccc(C(=O)N2c3ccccc3Sc3ccc(Cl)cc32)cc1       5.3
 9     O=C(c1ccccc1)N1c2ccccc2Sc2ccc(Cl)cc21       9.3
10     O=c1c2ccccc2[se]n1-c1ccccc1 [EBSELEN]       4.6
11    O=C(Cc1ccccc1)N1c2ccccc2Sc2ccc(Cl)cc21       3.6
12     O=C(Cc1ccccc1)N1c2ccccc2[Se]c2ccccc21        11

====

# SYSTEM_TESTED: UniProt:P05067
# Sequence (P05067 whole entry): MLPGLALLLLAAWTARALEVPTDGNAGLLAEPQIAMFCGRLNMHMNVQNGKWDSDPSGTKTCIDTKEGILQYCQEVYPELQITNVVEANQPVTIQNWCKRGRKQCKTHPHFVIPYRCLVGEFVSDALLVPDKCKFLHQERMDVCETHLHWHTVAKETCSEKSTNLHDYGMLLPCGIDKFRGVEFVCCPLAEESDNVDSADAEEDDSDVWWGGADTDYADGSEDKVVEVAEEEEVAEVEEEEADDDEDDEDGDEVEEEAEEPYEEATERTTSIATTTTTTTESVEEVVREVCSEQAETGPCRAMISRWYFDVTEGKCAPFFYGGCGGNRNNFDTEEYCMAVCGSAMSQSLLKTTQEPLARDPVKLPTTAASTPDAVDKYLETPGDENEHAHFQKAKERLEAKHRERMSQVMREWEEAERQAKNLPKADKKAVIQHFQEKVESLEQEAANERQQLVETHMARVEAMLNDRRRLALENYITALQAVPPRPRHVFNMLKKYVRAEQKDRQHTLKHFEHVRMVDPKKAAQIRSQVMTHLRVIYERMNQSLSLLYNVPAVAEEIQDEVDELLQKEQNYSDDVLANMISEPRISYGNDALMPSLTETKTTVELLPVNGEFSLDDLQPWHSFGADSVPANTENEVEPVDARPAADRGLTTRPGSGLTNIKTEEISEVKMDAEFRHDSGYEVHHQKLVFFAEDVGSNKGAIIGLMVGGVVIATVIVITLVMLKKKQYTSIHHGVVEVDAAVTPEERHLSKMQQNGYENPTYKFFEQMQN
# TEST_SUMMARY: Inhibition of amyloid beta (1-42) self-induced aggregation (unknown origin) at 25 uM measured every 5 mins for 16 hrs by thioflavin T fluorescence method relative to control
MEASURED_ATTRIBUTE: inhibition

> print(dat)
                                   molecule   system.tested  reported
1  COc1ccc(C(=O)N2c3ccccc3[Se]c3ccc(Cl)cc32)cc1OC  UniProt:P05067      5.9%
2  COc1ccc(C(=O)N2c3ccccc3[Se]c3ccccc32)cc1OC  UniProt:P05067     11.1%
3  O=S(=O)(O)c1cc(S(=O)(=O)O)c2c(/N=N/c3ccccc3)c(O)ccc2c1  UniProt:P05067     57.2%
4                  Clc1ccc2c(c1)Nc1ccccc1S2  UniProt:P05067     60.8%
5                    c1ccc2c(c1)Nc1ccccc1S2  UniProt:P05067       62%
6                 c1ccc2c(c1)Nc1ccccc1[Se]2  UniProt:P05067     45.6%
7               Clc1ccc2c(c1)Nc1ccccc1[Se]2  UniProt:P05067       45%
8  COc1ccc(C(=O)N2c3ccccc3Sc3ccc(Cl)cc32)cc1OC  UniProt:P05067      5.9%

====

viability at 24 h, 50 µM for assorted compounds
# TEST_SUMMARY: Cytotoxicity against human SH-SY5Y cells assessed as cell viability at 50 uM after 24 hrs by MTT assay relative to untreated control
# Format: cell-based
# APPLIED_CONDITIONS: read-out: Activity
MEASURED_ATTRIBUTE: viability at 24 h, 50 µM (%)

> print(dat)
                                   molecule  result.units  reported
1                    c1ccc2c(c1)Nc1ccccc1S2             %      63.3
2               O=c1c2ccccc2[se]n1-c1ccccc1             %      53.9
3               Clc1ccc2c(c1)Nc1ccccc1[Se]2             %        43
4                  Clc1ccc2c(c1)Nc1ccccc1S2             %      63.3
5  COc1ccc(C(=O)N2c3ccccc3[Se]c3ccc(Cl)cc32)cc1OC             %        76
6  COc1ccc(C(=O)N2c3ccccc3Sc3ccc(Cl)cc32)cc1OC             %      63.3
7  COc1ccc(C(=O)N2c3ccccc3[Se]c3ccccc32)cc1OC             %        76
8                 c1ccc2c(c1)Nc1ccccc1[Se]2             %        76
9   COc1ccc(C(=O)N2c3ccccc3Sc3ccccc32)cc1OC             %      63.3
